Measurement Notes: Human HepG2 cell viability assay in 384 well format
Assay type: toxicity, cell-based
Set-up: dose 125 nL, time 70.5 hour; concentration not given beside the values
Run Conditions: HepG2 cells, read-out: Inhibition

{"columns": ["Compound", "Unit Tag", "cytotoxicity at 70.5 h"],
 "data": [
  ["CCC(=O)N(C)C1CCN(Cc2ncc(C)c(OC)c2C)CC1", "%", -17.3],
  ["COCCNC(=O)c1cnc(N(C)C)nc1C", "%", -5.03],
  ["Cc1cc(C[C@@H]2COC[C@H]2NCc2ccc(C(C)C)cc2)on1", "%", -8.05],
  ["Cc1nc(CN2CCN(c3cncc(Cl)n3)CC2)no1", "%", -9.09],
  ["O=C(CCc1ccc(Cl)cc1)NC1CCN(c2cccc(F)c2)CC1", "%", 10.5],
  ["COc1cc(CNc2cnn(C(C)(C)C)c(=O)c2Cl)ccn1", "%", 1.57],
  ["O=C1CCc2cc(NC(=O)N3CCCN(Cc4cccs4)CC3)ccc21", "%", -8.02],
  ["CCNc1ncc(CN(Cc2ccccc2)CC(C)CO)cn1 (configuration not stated)", "%", -4.08],
  ["CC(=O)N(Cc1ncc(C(C)C)o1)C1CCN(CCn2cccn2)C1 (configuration not stated)", "%", 4.58],
  ["COCC1c2nnn(CC3CC3)c2CCN1C(=O)c1ccncn1 (configuration not stated)", "%", 9.24],
  ["COc1nn(C)c2c1CCCN(C(=O)c1ccc(C)c(F)c1)C2", "%", -101],
  ["Fc1ccc2c(c1)nc1n2[C@@H](CNCc2nccs2)COC1", "%", -7.36]
]}

Numbers sourced from ChEMBL document CHEMBL3507680.
